Target Entity: T1, NAC1 (322-485) (Homo sapiens, UniProt Q96RE7 322-485)
T1 sequence: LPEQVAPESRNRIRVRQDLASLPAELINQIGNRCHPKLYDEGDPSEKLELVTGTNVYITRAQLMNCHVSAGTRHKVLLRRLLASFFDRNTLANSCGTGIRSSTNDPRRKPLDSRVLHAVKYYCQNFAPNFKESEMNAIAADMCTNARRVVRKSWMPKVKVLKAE
Test Details: ITC; single event; Table S2 prints 0.83; ITC: 20 mM HEPES pH 7.0, 0.1 M NaCl, 1 mM TCEP, 20 C (Fig 2 legend says 25 C); pull-down: 4 C with 10 ug poly(dI/dC), buffer not stated; NMR 298 K
Stated Conditions: protein: recombinant; tags: His (pET28HisTEV); blunt
Test Readout: Kd
Put your answer as a value accompanied by its unit after it.

I'd like to know its Kd. The binder in question is de novo motif 2 (dsDNA) DNA 1: AACCCCGCCCCAA DNA 2: TTGGGGCGGGGTT
820 nM
